# System: a variety of test species
# ASSAY_NOTES: Pre-emergence herbicidal activity (glasshouse, sprayed one day after sowing, evaluated after 13 days)
# Format: in vivo
# CONDITION: ECHCG, application pre-emergence, rate 1000 g/Ha, scale 0-5
ENDPOINT_NAME: Pre-emergence herbicidal damage score, ECHCG
Answers are plain numbers.

// below: answered molecules
molecule="COC1=C(C)C(O)N(c2cc(C(C)(C)C)on2)C1=O (stereo not drawn) [D1]" target_or_test_system="a variety of test species" val=4
molecule="CCC1=C(Br)C(=O)N(c2noc(C(C)C)c2C#N)C1O (stereo not drawn) [A62]" target_or_test_system="a variety of test species" val=4
molecule="CC1=C(Cl)C(=O)N(c2cc(C(C)(C)CC#N)on2)C1O (stereo not drawn) [A72]" target_or_test_system="a variety of test species" val=5

Hi there! I need Pre-emergence herbicidal damage score, ECHCG for each item below, if you can.
1. COCC(C)(C)c1cc(N2C(=O)C(C)=C(OC)C2O)no1 (stereo not drawn) [G3]
2. CC(=O)OC1C(C)=C(Cl)C(=O)N1c1cc(C(C)(C)C)on1 (stereo not drawn) [A75]
3. C=CC(C)(C)c1onc(N2C(=O)C(Cl)=C(C)C2O)c1C#N (stereo not drawn) [A66]

[5, 4, 5]

====

# Tested on: a variety of test species
# ASSAY_NOTES: Pre-emergence herbicidal activity (glasshouse, sprayed one day after sowing, evaluated after 13 days)
# Assay type: in vivo
# Set-up: key: 5=total damage to plant; 0=no damage to plant
# CONDITION: ABUTH, application pre-emergence, rate 1000 g/Ha, scale 0-5
ENDPOINT_NAME: Pre-emergence herbicidal damage score, ABUTH

molecule="CCCC1=C(Br)C(=O)N(c2cc(C(C)(C)C#N)on2)C1O (stereo not drawn)" val=5

Hi there! I need Pre-emergence herbicidal damage score, ABUTH for each item below, if you can.
1. COC1=C(C)C(=O)N(c2cc(C(C)(C)C#N)on2)C1O (stereo not drawn)
2. CC1=C(Cl)C(=O)N(c2cc(C(C)(C)C)on2)C1O (stereo not drawn)
3. CCC1=C(I)C(=O)N(c2cc(C(C)(C)C)on2)C1O (stereo not drawn)
4. CCOC1=C(C)CN(c2cc(C(C)(C)C#N)on2)C1=O
5. COC1=C(Cl)C(O)N(c2cc(C(C)(C)C)on2)C1=O (stereo not drawn) [E1]

1. 5
2. 5
3. 3
4. 3
5. 4

Hi there! I need Pre-emergence herbicidal damage score, ABUTH for each item below, if you can.
1. CC1=C(Cl)C(=O)N(c2cc(C(C)(C)C)on2)C1OC(=O)c1ccno1 (stereo not drawn)
2. CCCC1=C(Cl)C(=O)N(c2noc(C(C)(C)CC)c2C#N)C1O (stereo not drawn)
3. CC1=C(Cl)C(=O)N(c2cc(C(C)(C)C)on2)C1OC(=O)OCC(C)(C)C (stereo not drawn)
4. CC(C)(C)c1cc(N2C(=O)C(Cl)=C(NC3CC3)C2O)no1 (stereo not drawn)
5. CCOC(C)(C)CCCc1cc(N2C(=O)C(Cl)=C(C)C2O)no1 (stereo not drawn)
6. CCCCC(C)(C)c1cc(N2C(=O)C(Cl)=C(C)C2O)no1 (stereo not drawn)
7. CC1=C(Cl)C(=O)N(c2cc(C3CC3)on2)C1O (stereo not drawn)

1: 5; 2: 4; 3: 5; 4: 5; 5: 5; 6: 1; 7: 5

Hi there! I need Pre-emergence herbicidal damage score, ABUTH for each item below, if you can.
1. CCc1onc(N2C(=O)C(Cl)=C(C)C2O)c1C#N (stereo not drawn)
2. CC1=C(Br)C(=O)N(c2cc(C)on2)C1O (stereo not drawn)
3. COCC(C)(C)c1cc(N2C(=O)C(Cl)=C(C)C2O)no1 (stereo not drawn)
4. CCCCC(C)(C)c1onc(N2C(=O)C(Cl)=C(C)C2O)c1C#N (stereo not drawn)
5. COC1=C(C)C(O)N(c2cc(C(C)(C)C)on2)C1=O (stereo not drawn) [D1]
6. COC1=C(C)C(=O)N(c2noc(C(C)(C)C)c2C#N)C1O (stereo not drawn)
7. CCC(C)(CC)c1cc(N2C(=O)C(Cl)=C(C)C2O)no1 (stereo not drawn)

[4, 5, 5, 0, 5, 5, 4]

Hello, please tell me recorded Pre-emergence herbicidal damage score, ABUTH for this one: CCCC1=C(Br)C(=O)N(c2noc(C(C)(C)C)c2C#N)C1OC(=O)CC (stereo not drawn)
5
